test system: barnyardgrass (Echinochloa crus-galli, ECHCG); experiment: Pre-emerge test, greenhouse herbicide activity screening; format: in vivo; conditions: 63 g ai/ha; rated 14 days after application; 0 = no damage, 100 = complete death
Parameter: Pre-emerge Herbicidal Activity, phytotoxicity rating (0-100), ECHCG. Scope: all listed entries.
readout-type: Pre-emerge Herbicidal Activity, phytotoxicity rating (0-100), ECHCG

>>> print(df.to_string())
                                smiles_entry  endpoint_result
 0  Cn1c(C(F)(F)F)cc(=O)n(-c2c(F)cc(Cl)c(OC(F)F)c2NC(=O)c2ccc3ccccc3c2)c1=O               80
 1  COc1c(Cl)cc(F)c(-n2c(=O)cc(C(F)(F)F)n(C)c2=O)c1NC(=O)C=Cc1ccccc1Cl                0
 2  COc1c(Cl)cc(F)c(-n2c(=O)cc(C(F)(F)F)n(C)c2=O)c1NC(=O)c1c(F)c(F)c(F)c(F)c1F                0
 3  COc1c(Cl)cc(F)c(-n2c(=O)cc(C(F)(F)F)n(C)c2=O)c1NC(=O)c1cnc2ccccc2n1               20
 4  COc1ccc(C(=O)Nc2c(OC)c(Cl)cc(F)c2-n2c(=O)cc(C(F)(F)F)n(C)c2=O)cc1               95
 5  COc1c(Cl)cc(F)c(-n2c(=O)cc(C(F)(F)F)n(C)c2=O)c1N(C(=O)c1ccc(F)c(F)c1)C(=O)c1ccc(F)c(F)c1                0
 6  COc1c(Cl)cc(F)c(-n2c(=O)cc(C(F)(F)F)n(C)c2=O)c1NC(=O)c1ccc(F)cc1F              100
 7  COc1c(Cl)cc(F)c(-n2c(=O)cc(C(F)(F)F)n(C)c2=O)c1NC(=O)c1ccc(C#N)cc1               50
 8  COc1c(Cl)cc(F)c(-n2c(=O)cc(C(F)(F)F)n(C)c2=O)c1NC(=O)c1ccc(OC(F)(F)F)cc1                0
 9  COc1c(Cl)cc(F)c(-n2c(=O)cc(C(F)(F)F)n(C)c2=O)c1N(C(=O)c1ccc(Cl)nc1)C(=O)c1ccc(Cl)nc1               70
10  CCOc1ccc(C(=O)Nc2c(OC)c(Cl)cc(F)c2-n2c(=O)cc(C(F)(F)F)n(C)c2=O)cc1                0
11  COc1c(Cl)cc(F)c(-n2c(=O)cc(C(F)(F)F)n(C)c2=O)c1N(C(=O)C=Cc1ccccc1Cl)C(=O)C=Cc1ccccc1Cl                0
12  COc1c(Cl)cc(F)c(-n2c(=O)cc(C(F)(F)F)n(C)c2=O)c1NC(=O)c1cc([N+](=O)[O-])cc([N+](=O)[O-])c1                0
13  COc1c(Cl)cc(F)c(-n2c(=O)cc(C(F)(F)F)n(C)c2=O)c1NC(=O)COC(C)=O               10
